The reported numbers originate from ChEMBL document CHEMBL4513216.

Test system: Plasmodium berghei
Experiment: Screen against P. berghei liver stage (PbLuc), transformed with Luciferase, at 10uM
Type: functional, HepG2
Conditions: tested at 10 uM
Among all 69,000 compounds or so, about 8,600 (12%) showed an effect of 50% or more. Only a selection was taken, and strong results are over-represented in it overall.
READOUT NAME: INHIBITION (%)

1. CCC(O)CN(c1ccccc1)S(=O)(=O)c1cnc(C)s1 (centres undefined)	37.8
2. CN(Cc1ccccc1)CC1(O)CCCN(Cc2ccc(F)cc2)C1=O (centres undefined)	31.1
3. Cc1ncsc1C(=O)N(Cc1ccccc1)C1CC1	33.45
4. CCc1ccc(CN(Cc2ccco2)C(C)C(C)C)nc1 (centres undefined)	60.7
5. Cc1ncc(CNCC2CCC(C(N)=O)CC2)n1-c1ccccc1 (centres undefined)	30.8
6. O=C(c1ccncc1)N1CCCC(c2ncncc2-c2ccncc2)C1 (centres undefined)	12.3
7. O=C(CCO)N1CC2(CCN(c3ccccc3)C2)C1	61.9
8. CN(Cc1ccccc1)CC1(O)CCCN(CC(C)(C)C)C1=O (centres undefined)	51.8
9. CCC(O)CN(Cc1ccccc1)S(=O)(=O)c1cnc(C)s1 (centres undefined)	52.6
10. COCCC(=O)N1CC2(CCN(c3ccccc3)C2)C1	12.1
11. CCc1ccc(CN2CCCCC2c2n[nH]cc2-c2cc(C)no2)cc1 (centres undefined)	66.6
12. CN1CCCc2cc(-c3cncn3CC(=O)NC(C)(C)C)ccc21	18.3
13. CC1Cc2cc(-c3cncn3CC(=O)NC(C)(C)C)ccc2N1C (centres undefined)	52
14. Cc1cc(NC(=O)CN2CCCC2c2noc(C)n2)n(C)n1 (centres undefined)	-25.8
15. O=C1NCCN1CCNCC1(O)CCCN(CCC2CCCCC2)C1=O (centres undefined)	-48.7
16. Cc1cccc(CN2CCCCC2c2n[nH]cc2-c2cc(C)no2)c1 (centres undefined)	31.3
17. c1csc(N2[C@H](Cn3cncn3)C[C@@H]3CNCC[C@@H]32)n1	-86.4
18. Cc1ccc(N2CCC3(CCN(C(=O)c4ccsc4)CC3)CC2)nn1	9.63
19. O=C(CO)N1CC2(CCN(c3ccccc3)C2)C1	-34.6
20. COc1ccc(CN2CCCCC2c2n[nH]cc2-c2cc(C)no2)cc1 (centres undefined)	34.1
21. Cc1cc(CN(C)CC2(O)CCCN(CCC3CCCCC3)C2=O)no1 (centres undefined)	32.3
22. O=C1N(CCC2CCCCC2)CCCC1(O)CNCCc1ccccc1 (centres undefined)	56.9
23. COc1ccc(CN(C)[C@@H]2CN(C(=O)c3cccn3C)C[C@H]2O)cc1	32.8
24. CCN1c2ccc(-c3cncn3CC(=O)NC(C)(C)C)cc2CC1C (centres undefined)	59.3

###

Test system: Plasmodium berghei
Assay: Screen against P. berghei liver stage (PbLuc), transformed with Luciferase, at 10uM
Format: functional, HepG2
Conditions: tested at 10 uM
The whole screen tested about 69,000 compounds, of which about 8,600 (12%) showed an effect of 50% or more. The list comes from a sample in which strong results are over-represented; it also holds close analogues and randomly drawn compounds.
Entries and their INHIBITION
READOUT NAME: INHIBITION (%)

1) Cc1nc(C)n(CC2CCCN2Cc2nc(-c3ccccn3)no2)n1 (stereo not drawn)	32.7
2) O=C(NC1CCN(C2CC2)CC1)c1cc(Cl)ccc1-n1cnnn1	62.8
3) c1cnc(Nc2cncc(C3CCCN3)n2)cn1 (stereo not drawn)	31.6
4) COCC(O)CN1CCC(NC(=O)c2ccccc2Cl)CC1 (stereo not drawn)	19.6
5) N#CC1CCCN(S(=O)(=O)c2ccc(C(=O)NCC(F)F)cc2)C1 (stereo not drawn)	49.2
6) CS(=O)(=O)N1CCC(NC(=O)COc2ccc(Cl)cc2)CC1	-61.4
7) CCN1CC2(CC1=O)CN(Cc1cccs1)CCN(C(=O)C(C)C)C2 (stereo not drawn)	-9.76
8) CNc1cc(C(=O)N2CCC3(CC2)Nc2ccccc2NC3=O)ccn1	57.6
9) CC(=O)NC1CCCN(Cc2ccc(-n3ccnc3)cc2)C1 (stereo not drawn)	65.6
10) CC(=O)c1cc(C(=O)N2CCC3(CC2)Nc2ccccc2NC3=O)cs1	20.3
11) CC(C)[C@H]1COC(=O)N1CC(=O)N(C)CCCn1cccn1	42.1
12) CC(C)CN1CCC(NC(=O)c2ccc(F)cc2I)CC1	50.1
13) CC(c1ccco1)N(C)C(=O)NCCOc1ccc(C#N)cc1 (stereo not drawn)	5.94
14) Cc1ccc(N2CCCC(NCc3ccc(-n4ccnc4)cc3)C2)nn1 (stereo not drawn)	11.5
15) CCN(C)c1ncnc2c1CCN(c1ccc(C)nn1)CC2	39.4
16) Cc1ccc(N2CCc3ncnc(N(C)C)c3CC2)nn1	8.6
17) Cc1cnn(C2CCCN(C(=O)Cc3cn4ccsc4n3)C2)c1 (stereo not drawn)	-9
18) CC(=O)N1CCC(NC(=O)c2cc(Cl)ccc2-n2cnnn2)CC1	37.7
19) CC(=O)N1CCC(NC(=O)c2cc(S(N)(=O)=O)ccc2C)CC1	-21.3
20) CCC(=O)NC1CCCN(Cc2ccc(-n3ccnc3)cc2)C1 (stereo not drawn)	41.5
21) CC(C)CNc1c(NCc2ccco2)c(=O)c1=O	-4.28
22) COc1cc(CNC2CCCN(c3ncccn3)C2)cc2c1OCO2 (stereo not drawn)	-34.8
23) CC(=O)N1CCN([C@@H]2CCC[C@@H](NC(=O)c3cccnc3)[C@H]2O)CC1	8.53
24) COc1ncc(C(=O)N2CCC3(CC2)C(=O)Nc2ccccc23)cn1	12
25) CCN1CC2(CC1=O)CN(C(=O)c1cccs1)CCN(C(=O)N(C)C)C2 (stereo not drawn)	71
26) COc1cc(C(=O)N2CCC3(CC2)Nc2ccccc2NC3=O)ccn1	52.1
27) Cc1[nH]nc(CCC(=O)NCC2CCCN(C3CCCC3)C2)c1C (stereo not drawn)	41.6
28) Cc1nonc1C1CCCN1Cc1ccc(C(=O)Nc2nccs2)cc1 (stereo not drawn)	56.6
29) CNCCCNC1CCN(c2ccc(-n3ccnc3)cc2)CC1	-7.2
30) CC(=O)Nc1cccc(CNC(=O)N(C)Cc2ccccc2)c1	-25
31) CSC(C)(C)CNC(=O)NC(c1nnc2n1CCC2)C(C)C (stereo not drawn)	21.5
32) CC(C)CN1CCC(NC(=O)c2ccc(F)cc2F)CC1	31.1
33) CC(C)C(C(=O)N1CCN(Cc2ccccn2)CC1)n1cncn1 (stereo not drawn)	-24.5
34) O=C(c1nnn(-c2ccccc2)n1)N(CCO)CCO	-7.77
35) CC(=O)N(Cc1ncc(C)o1)C1CCN(Cc2cc(C)on2)C1 (stereo not drawn)	-16
36) Cc1ccc(N2CCc3ncnc(C4CC4)c3CC2)nn1	58.4
37) CCNC(=O)CCCC(=O)N1CCc2cc(Cl)cc(Cl)c2C1	-4.52
38) O=C(NCC(F)F)c1ccc(S(=O)(=O)N2CCCC(O)C2)cc1 (stereo not drawn)	37.3
39) Cc1n[nH]c2ncc(CNC3CCCN(c4ncccn4)C3)cc12 (stereo not drawn)	73.5
40) Cc1cccc(N2CCc3ncnc(C4CC4)c3CC2)n1	-11.6
41) CC(C)CN1CCC(NC(=O)c2ccc(Cl)cc2Cl)CC1	90.2
42) CCN1CC2(CC1=O)CN(C(=O)c1ccoc1)CCN(C(=O)N(C)C)C2 (stereo not drawn)	20.9
43) Cc1cc(C2CCCN2Cc2ccc(C(=O)Nc3nccs3)cc2)on1 (stereo not drawn)	7.97
44) Cc1c(NC(=O)CN(C)S(C)(=O)=O)cccc1OC1CCCC1	-28.2
45) C=C(C)CN1CCN(Cc2nccn2C)C(C)C1 (stereo not drawn)	42.45
46) Cc1n[nH]c2ncc(CNC3CCN(Cc4ccccn4)CC3)cc12	-20.6
47) CC(=O)N1CCC(NC(=O)c2ccccc2-n2cnnn2)CC1	35.9
48) CNc1ncc(C(=O)N2CCC3(CC2)Nc2ccccc2NC3=O)cn1	27.6

###

Tested on: Plasmodium berghei
Test: Screen against P. berghei liver stage (PbLuc), transformed with Luciferase, at 10uM
Type: functional, HepG2
Conditions: tested at 10 uM
The whole screen tested about 69,000 compounds, of which about 8,600 (12%) showed an effect of 50% or more. The full list was thinned out, with strong results kept by preference.
The threshold is 30%. Values of INHIBITION beneath it are tagged MET; values meeting or exceeding it are tagged NOT MET.

1. CC(C)n1cc(C(=O)NCCCn2ccnc2)c2n[nH]c(=O)c-2c1	MET
2. O=S(=O)(C1CC1)N1CCC2(COCc3cnc(-c4cccnc4)nc32)C1 (stereo not drawn)	NOT MET
3. Cc1cc(C(=O)N2CCCC(n3cncn3)C2)on1 (stereo not drawn)	MET
4. CCOC(C)C(=O)N(C)C1CCN(c2ccc(OC)cc2)CC1 (stereo not drawn)	NOT MET
5. CN1CCOC(CNC(=O)CCCOc2ccccc2F)C1 (stereo not drawn)	NOT MET
6. O=C(CS(=O)(=O)Cc1cc(Cl)c2c(c1)OCCCO2)NCC1CC1	NOT MET
7. COc1ccc(N2CCC(N(C)C(C)C(=O)N(C)C)CC2)cc1 (stereo not drawn)	NOT MET
8. COc1ccc(CN2CCC3(CC2)NC(=O)CC3c2cnn(C)c2)cc1 (stereo not drawn)	MET
9. C1CCN(CCOC2CCNC2)CC1 (stereo not drawn)	MET
10. Cc1nn(C)cc1S(=O)(=O)NC1(CN2CCOCC2)CCCCC1	MET
11. Cc1cnc(C(=O)N2C[C@@H]3CC[C@H]2CN(Cc2cscn2)C3)[nH]1	NOT MET
12. CN(CCN1CCN(c2ccccc2)CC1)C(=O)Nc1ccncc1	NOT MET
13. CS(=O)(=O)N1CCO[C@@H]2CN(C(=O)N3CCCC3)CC[C@@H]2C1	NOT MET
14. CS(=O)(=O)NC(=O)c1ccn(-c2ccc(Cl)c(Cl)c2)n1	MET
15. O=C(CC1CC1)N1CCN(Cc2ccncc2)c2ncccc2C1	MET
16. COc1cc(-c2n[nH]c(CN)n2)cc(OC)c1OC	MET
17. CS(=O)(=O)CCS(=O)(=O)Cc1cc(Cl)c2c(c1)OCCCO2	MET
18. Cc1cc(CNC(=O)CN2CCCC(Cn3cncn3)C2)ccc1F (stereo not drawn)	MET
19. O=C(O)CCCC(=O)NCC1(O)CCN(c2ccnc3cccnc23)C1 (stereo not drawn)	MET
20. CN1CCOC(CNC(=O)C2(c3ccccc3)CCC2)C1 (stereo not drawn)	NOT MET
21. CN(C)C(=O)CCS(=O)(=O)Cc1cc(Cl)c2c(c1)OCO2	NOT MET
22. CN1CCOC(CNC(=O)CCCOc2cccc(F)c2)C1 (stereo not drawn)	MET
23. CN(C)C(=O)CS(=O)(=O)Cc1cc(Cl)c2c(c1)OCCCO2	MET
24. COCc1ncc(CN2CCC(Oc3ccccc3OC)CC2)cn1	MET
25. CC(NC(=O)NCCc1ccc(Cl)s1)c1ccccn1 (stereo not drawn)	MET
26. CN(CCN1CCN(c2ccccc2)CC1)C(=O)Nc1ccccn1	NOT MET
27. CCOCC1CC2(CCN(C(=O)c3ccccn3)CC2)CO1 (stereo not drawn)	NOT MET
28. NC(=O)CS(=O)(=O)Cc1cc(Cl)c2c(c1)OCCCO2	MET
29. CN(C)C(=O)CN1CCC2(CCN(CC3CC3)CC2)C1=O	MET
30. Cc1ccc(C(=O)NC2CCN(C(C)C)C2)c(=O)[nH]1 (stereo not drawn)	MET
31. NC(CNS(=O)(=O)Cc1cccc2cccnc12)c1ccccc1 (stereo not drawn)	MET
32. Cc1ccccc1OCCCC(=O)NCC1CN(C)CCO1 (stereo not drawn)	MET
33. COc1ccccc1C(C)(C)NC(=O)Nc1ccc(F)c(C(N)=O)c1	MET
34. CNC(=O)COC(=O)c1ccn(-c2ccc(Cl)c(Cl)c2)n1	NOT MET
35. Cc1cc(N(C)C)nc(C2(C)CCCN2C(=O)c2ccccc2)n1 (stereo not drawn)	MET
36. NCc1cc(-c2ccccc2)n2nccc2n1	NOT MET
37. CC(=O)NCC(=O)N1C[C@@H](C)[C@@]2(CCN(c3ccsc3)C2=O)C1	MET
38. COc1cc(NC2CCCN(c3ncccn3)C2)cc(OC)c1 (stereo not drawn)	MET
39. CCC=C(C)C(=O)NCc1ccc(OC)nc1	MET
40. Cc1cc(CN2CCN(C(=O)NCc3c(C)noc3C)CC2)on1	NOT MET
41. CN(Cc1cccc(OC(F)(F)F)c1)Cc1cnn(C)c1	MET
42. Cc1ccc(-c2cc(C(=O)N(C)Cc3noc4c3CCCC4)[nH]n2)o1	NOT MET
43. Cc1nc(CNC(=O)NCC(O)c2ccc(F)cc2)cs1 (stereo not drawn)	NOT MET
44. COCC1c2c(cnn2C)CCN1C(=O)c1cccn1C (stereo not drawn)	NOT MET
45. CC(C)C(=O)N1CCC2(COCc3cnc(-c4cccnc4)nc32)C1 (stereo not drawn)	MET
46. CNC(=O)CS(=O)(=O)Cc1cc(Cl)c2c(c1)OCCCO2	MET
